OD450 reference
target: T1, human MSLN-R3-3 polypeptide (human); assay: ELISA, coated antigen; antibody 0.001 nM
T1 construct: also called human MSLN-R3-3 protein; hMSLN-R3-3
State the answer as a number, implicitly in OD450.

Recorded OD450, per entry:
1. S009-F3.45.21 (antibody, human IgG1, kappa, V domains shown, Human-murine chimeric antibody, human IgG1/kappa constant regions) VH: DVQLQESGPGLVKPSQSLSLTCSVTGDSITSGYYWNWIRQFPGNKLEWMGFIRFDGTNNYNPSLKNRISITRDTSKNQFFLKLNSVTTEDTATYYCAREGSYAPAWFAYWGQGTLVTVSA VL: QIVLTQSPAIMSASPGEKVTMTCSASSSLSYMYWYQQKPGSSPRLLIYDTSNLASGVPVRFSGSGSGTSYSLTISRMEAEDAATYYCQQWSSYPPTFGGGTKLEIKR :: 0.25
2. S009-F3.74.20 (antibody, human IgG1, kappa, V domains shown, Human-murine chimeric antibody, human IgG1/kappa constant regions) VH: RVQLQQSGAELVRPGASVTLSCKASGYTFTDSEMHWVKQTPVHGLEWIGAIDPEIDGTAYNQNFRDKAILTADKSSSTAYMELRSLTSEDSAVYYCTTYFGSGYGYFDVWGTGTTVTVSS VL: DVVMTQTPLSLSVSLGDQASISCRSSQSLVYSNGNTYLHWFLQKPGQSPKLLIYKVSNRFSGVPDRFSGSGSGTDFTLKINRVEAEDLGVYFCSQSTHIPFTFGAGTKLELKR :: 0.09

Using the record for S009-F3.80.22 (antibody, human IgG1, kappa, V domains shown, Human-murine chimeric antibody, human IgG1/kappa constant regions) VH: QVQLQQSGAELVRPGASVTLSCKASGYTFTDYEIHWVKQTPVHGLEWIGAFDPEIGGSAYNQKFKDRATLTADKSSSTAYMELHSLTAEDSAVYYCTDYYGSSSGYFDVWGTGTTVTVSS VL: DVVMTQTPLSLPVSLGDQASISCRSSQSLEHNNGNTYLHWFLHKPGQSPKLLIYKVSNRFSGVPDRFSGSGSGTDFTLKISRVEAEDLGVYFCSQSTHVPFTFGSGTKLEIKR , report its OD450. 0.15
